Molecular target: T1, soluble monomeric human MUC16 (hMUC16.mmh, last five SEA domains, SEQ ID: 1902) (Homo sapiens, UniProt Q8WXI7)
T1 construct: mmh (myc-myc-hexahistidine)
T1 sequence (Q8WXI7 with tags, fused parts or gaps): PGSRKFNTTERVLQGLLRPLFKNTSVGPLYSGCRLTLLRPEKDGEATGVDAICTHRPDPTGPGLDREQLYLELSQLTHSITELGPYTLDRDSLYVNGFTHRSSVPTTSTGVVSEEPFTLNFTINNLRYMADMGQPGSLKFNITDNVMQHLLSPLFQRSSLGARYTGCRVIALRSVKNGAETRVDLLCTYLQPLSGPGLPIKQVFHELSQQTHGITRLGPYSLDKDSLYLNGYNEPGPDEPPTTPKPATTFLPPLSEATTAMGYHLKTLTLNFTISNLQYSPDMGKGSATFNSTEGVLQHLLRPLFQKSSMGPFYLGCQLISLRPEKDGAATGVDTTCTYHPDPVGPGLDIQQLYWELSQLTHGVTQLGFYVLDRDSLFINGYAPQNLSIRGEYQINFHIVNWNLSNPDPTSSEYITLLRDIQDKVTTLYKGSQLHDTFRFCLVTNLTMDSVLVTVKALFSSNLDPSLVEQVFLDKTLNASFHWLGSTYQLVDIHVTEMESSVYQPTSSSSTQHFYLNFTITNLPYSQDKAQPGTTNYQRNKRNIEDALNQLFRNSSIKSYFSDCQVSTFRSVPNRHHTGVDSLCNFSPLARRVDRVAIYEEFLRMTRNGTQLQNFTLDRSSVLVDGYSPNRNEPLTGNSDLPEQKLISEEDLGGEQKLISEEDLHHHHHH
Assay: Surface plasmon resonance (BIACORE) binding to hMUC16 fragment at 25° C.
Conditions: Human Fc anti-MUC16 antibodies (H1H), 25° C., Table 5B
Listed below: ka values for each entry.
Note: unit M⁻¹ s⁻¹ is implicit; provide only the numeric part.

Guide cases for ka, answers given:
molecule="H1H8770P: anti-MUC16 antibody, human IgG1 Fc; HCVR/LCVR SEQ ID NOs: 34/42 (antibody, V domains shown) VH: QVQLVESGGGVVQPGRSLRLSCAASGFTFSDHGMHWVRQAPGKGLEWVAVISYHGSNKHYADSVKGRFTISRDNSKNALYLQMNSLRPEDTAMYYCAKDGYDFWNGYSLFDYWGQGTLVTVSS VL: DIQMTQSPSSLSASVGDRVTITCRASQSISNYLNWYQQKPGKAPKLLIYTASNLLSGVPSRFSGSGSGTDFTLTISSLQPEDFATYYCQQSYSTPPITFGQGTKLEIK" value_type=ka units_of_measure="M⁻¹ s⁻¹" observed_measurement=247000
molecule="H1H8755P: anti-MUC16 antibody, human IgG1 Fc; HCVR/LCVR SEQ ID NOs: 2/10 (antibody, V domains shown) VH: EVQLVESGGGLVQPGRSLRLSCAASGFTFNDYAMHWVRQSPGKGLEWVSGIDWNGGSIDYADSVKGRFTISRDTAKNSLYLQMNSLKVEDTALYYCAKDIGHWNYIGGMDVWGQGTTVTVSS VL: DIQMTQSPSSLSASVGDRVTITCRASQSINIYLNWYQQKPGKAPKFLIYAASSLQTGVPSRFSGSGSGTDFTLTISSLEPEDFATYYCQHSYSTPPITFGQGTRLEIK" value_type=ka units_of_measure="M⁻¹ s⁻¹" observed_measurement=522000

Would you kindly look at the next entry?
So, H1H8783P: anti-MUC16 antibody, human IgG1 Fc; HCVR/LCVR SEQ ID NOs: 50/58 (antibody, V domains shown) VH: QVQLVESGGGVVQPGRSLRLSCAASGFTFSDHAMHWVRQAPGKGLEWVAVISYHGTDKQYGDSVKGRFTISRDNSKNALYLQMNSLRPEDTAMYYCAKDGYDFWNAYSLFDYWGQGTLVTVSS VL: DIQMTQSPSSLSASVGDRVTITCRASQSISNYLNWYQQKPGKAPKLLIYTASSLLSGVPSRFSGSGSGTDFTLTISSLQPEDFATYYCQQSYSTPPITFGQGTRLEIK ? Its ka was 174000

Provenance of the data: patent US10941208B2
